Target: human M4 (hM4) (Homo sapiens, UniProt P08173)
Sequence (P08173 whole entry): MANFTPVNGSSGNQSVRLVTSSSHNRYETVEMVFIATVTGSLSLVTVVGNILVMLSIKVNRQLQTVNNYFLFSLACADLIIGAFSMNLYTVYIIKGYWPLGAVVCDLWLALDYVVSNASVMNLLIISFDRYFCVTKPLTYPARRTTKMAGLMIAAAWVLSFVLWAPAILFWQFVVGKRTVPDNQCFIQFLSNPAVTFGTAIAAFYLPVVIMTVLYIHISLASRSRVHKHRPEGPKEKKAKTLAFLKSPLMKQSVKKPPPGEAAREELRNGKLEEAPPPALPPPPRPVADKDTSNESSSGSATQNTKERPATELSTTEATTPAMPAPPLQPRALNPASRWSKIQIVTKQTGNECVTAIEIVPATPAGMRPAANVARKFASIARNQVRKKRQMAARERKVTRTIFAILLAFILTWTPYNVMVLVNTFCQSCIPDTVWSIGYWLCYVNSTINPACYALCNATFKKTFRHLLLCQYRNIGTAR
Assay: Calcium mobilization assay, hM4/Gqi5-CHO cells, with EC20 acetylcholine (PAM)
Settings: hM4/Gqi5-CHO cells, calcium mobilization, EC20 acetylcholine
measured endpoint: hM4 pEC50
Give a plain numeric answer without units written out.

Looking up Cc1c(Cl)cnc2sc3c(NC4CC(c5ccncc5)C4)ncnc3c12 (stereo not drawn) [Compound 15e] , I see its hM4 pEC50 listed as 7.09

Memo: Cc1nc2sc3c(N4CC5CC5C4)nncc3c2c(C)c1Cl.Cl (stereo not drawn) [Compound 22c] , reported hM4 pEC50: 6.29

// Cc1c(Cl)cnc2sc3c(NC4(C)CC4)ncnc3c12 [Compound 15b] : hM4 pEC50 value = 6.39

Data point: COc1ccc(CNc2nncc3c2sc2nc(C)c(Cl)c(C)c23)cc1F [Compound 22a] ; hM4 pEC50 = 5.88

The compound identified as Cc1ncc(CNc2ncnc3c2sc2ncc(Cl)c(C)c23)cn1.Cl [Compound 15c] registered its hM4 pEC50 at 6.34

hM4 pEC50 reported for this compound Cc1nc2sc3c(NCC4CCC4)nncc3c2c(C)c1Cl.Cl [Compound 22f] : 6.40

The value of hM4 pEC50 measured for the compound Cc1c(Cl)cnc2sc3c(NC4CC4)ncnc3c12 [Compound 15g] turned out to be 7.60

compound Cc1nc2oc3c(N(C)C)ncnc3c2c(C)c1Cl.Cl [Compound 14e] , hM4 pEC50 observed: 5.86
